// data source = ChEMBL document CHEMBL4689842

# Test system: Fibroblast
# assay_name: Multiplex assay against human fibroblast
# Assay type: toxicity, cell-based
# test_parameters: 12 h, 1 µM, compound concentration 1 uM, replicate 1
Decide using Population Membrane Permeable-Phenotype (%) alone. Strictly below 20%: T. Equal to or above 20%: F.

1. CC(/C=C1\SC(=S)N(CCCC(=O)Nc2ccc(C(=O)O)c(O)c2)C1=O)=C\c1ccccc1
F

### Prompt For CCCCN(CC)c1nc(C)nc2c1c(C)cn2-c1c(C)cc(C)cc1C.Cl , is the recorded Population Membrane Permeable-Phenotype (%) below the cut-off of 20%?
### Response F

### Prompt For N#Cc1cccc(C(=O)Nc2cc(-c3ccccc3)nn2-c2ccccc2)c1 , is the recorded Population Membrane Permeable-Phenotype (%) below the cut-off of 20%?
### Response F

----------
# System: HEK-293T
# assay_name: Multiplex assay against HEK293T
# Format: toxicity, cell-based
# test_parameters: human, 24 h, 10 µM, compound concentration 10 uM, replicate 2
recorded_endpoint: Population Apoptotic (%)
Enter your answer as a number in %; do not include the unit.

Some compounds with known Population Apoptotic (%) results, for comparison:
1) CCCCCNC(=N)N/N=C/c1c[nH]c2ccc(OC)cc12.O=C(O)/C=C\C(=O)O [TEGASEROD MALEATE]
97
2) CC[C@@]1(O)C(=O)OCc2c1cc1n(c2=O)Cc2cc3ccccc3nc2-1
44
3) Cc1c(P(=S)(c2ccccc2)c2ccccc2)n2ccccc2[n+]1C/C=C/c1ccccc1.[Br-]
86
4) CC[C@@H]1C(=O)N(C)c2cnc(Nc3ccc(C(=O)NC4CCN(C)CC4)cc3OC)nc2N1C1CCCC1
11
5) CN(c1cc(C(F)(F)F)nc(OCCC(=O)O)n1)c1cccc2c1CCC2
9

### Prompt Quote Population Apoptotic (%) with test system HEK-293T for C=CC(=O)Nc1cc(-n2c(=O)ccc3cnc4ccc(-c5ccc(NS(C)(=O)=O)cc5)cc4c32)ccc1C
### Response 25

### Prompt Quote Population Apoptotic (%) with test system HEK-293T for Oc1cccc(-c2nc(N3CCOCC3)c3oc4ncccc4c3n2)c1
### Response 65

### Prompt Quote Population Apoptotic (%) with test system HEK-293T for CN1C(=O)[C@@H](NC(=O)c2cc3ccccc3[nH]2)N=C(c2ccccc2)c2ccccc21 [DEVAZEPIDE]
### Response 41

### Prompt Quote Population Apoptotic (%) with test system HEK-293T for N#Cc1cccc(C(=O)Nc2cc(-c3ccccc3)nn2-c2ccccc2)c1
### Response 67

### Prompt Quote Population Apoptotic (%) with test system HEK-293T for CCOC(=O)CCNc1cc(N2CCc3ccccc3CC2)nc(-c2ccccn2)n1
### Response 29

### Prompt Quote Population Apoptotic (%) with test system HEK-293T for Cc1ccc(S(=O)(=O)NC2c3ccccc3Oc3ccccc32)cc1
### Response 17

----------
# System: U2OS
# assay_name: Multiplex assay against U2OS
# Type: toxicity, cell-based
# test_parameters: human, 24 h, 1 µM, compound concentration 1 uM, replicate 2
Decide using Population Healthy Nuclei (%) alone. Strictly below 80%: class 1. Equal to or above 80%: class 0.

1) CC(C)C[C@H](NC(=O)[C@H](Cc1ccccc1)NC(=O)CNC(=O)CNC(=O)[C@@H](N)Cc1ccc(O)cc1)C(=O)O [ENKEPHALIN]
class 0
2) NC(=O)c1ccc2nc(-c3ccc(C4(N)CCC4)cc3)c(-c3ccccc3)n2n1 [BAY-1125976]
class 1
3) Cc1c(Nc2ccc(S(=O)(=O)N3CCN(C)CC3)cc2F)nc2ccc(Nc3cnn(C4CC4)c3)cn2c1=O
class 0
4) CCCCCNC(=N)N/N=C/c1c[nH]c2ccc(OC)cc12.O=C(O)/C=C\C(=O)O [TEGASEROD MALEATE]
class 1
5) Cl.Cn1c2c(c3ccc(Cl)c(Cl)c31)C(C#N)C1(CCNCC1)NC2=O (stereo not drawn)
class 0

### Prompt For CC[C@H](Nc1ncnc2[nH]cnc12)c1nc2cccc(F)c2c(=O)n1-c1ccccc1 [IDELALISIB] , is the recorded Population Healthy Nuclei (%) below the cut-off of 80%?
### Response class 1

### Prompt For CC(C)[C@H](CO)Nc1nc(Nc2cccc(Cl)c2)c2ncn(C(C)C)c2n1 [PURVALANOLA] , is the recorded Population Healthy Nuclei (%) below the cut-off of 80%?
### Response class 0
